- System: MS2 coat protein
- assay.text: apparent KD of MS2 coat protein; designed switch direction (-1 OFF switch, 1 ON switch): -1; higher = weaker reporter binding
- condition.parameters: input ligand: FMN 200 uM
Criterion: apparent KD of MS2 coat protein meeting or surpassing 50 nM. Met: fulfilled. Not met: not fulfilled.

See these solved cases before continuing.
Problem: Does CUCAUUCGAGGAUAUGCAGAAUGGGUCCAAUCAUAAGACAUACAUGAGGAUCACCCAUGUAGAAGGCGGCCAUC [Eternabot (L1) Solution 59] (Eterna round: R97, puzzle: Exclusion 2) have a reported apparent KD of MS2 coat protein of at least 50 nM?
Result: not fulfilled

Problem: Does AGGUGUUUCGUAGGAUAUGAGGAUCACCCAUAGAAGGAUAUCGAAAGAGAAGGUCUGAGGAUUACCCAGAAGGACGGGACGUCA [pwkr exNG2 2xF5 2xFMN.10] (Eterna round: R96, puzzle: Exclusion NG 2) have a reported apparent KD of MS2 coat protein of at least 50 nM?
Result: fulfilled

Problem: Does UGUUAGAUGGUAGGAUAUCCAUAUCGAGUGACCCUUUCAUAACAUGAGGAUCACCCAUGUCGGUGGGAGAAGGGCCGUAUGGUG [salish99_ExNG02_R04_031] (Eterna round: R96, puzzle: Exclusion NG 2) have a reported apparent KD of MS2 coat protein of at least 50 nM?
Result: not fulfilled

Next up:
Problem: Does GAGUUAGCGUGAGGAAUAUACAUGAGGAUCACCCAUGUUAGCUUAUAUAUUGCUCGUCUUAUAACAACAAUUAACUG [Mod JX-Electric-eye2] (Eterna round: R97, puzzle: Sensor, turn-off variant 1) have a reported apparent KD of MS2 coat protein of at least 50 nM?
Result: not fulfilled
